Source listed as PubChem BioAssay (EPA / NIEHS).

experiment: CCTE_Shafer_MEA_dev_per_network_spike_spike_percent: CCTE's Neural Network Formation Assay for Percent of Spikes in a Network Spike, Shafer Lab (AID 2284054)
Activity calls are given as the source filed them. How the source made its calls: active means hit-call score of the fitted dose curve at least 0.9, where 1 is the maximum; inactive means score below 0.9.
Labels: TRUE for active, FALSE for inactive

In [3]: df
Out[3]:
                                    compound  class_assignment
 0           O=S(=O)(c1ccc(O)cc1)c1ccc(O)cc1             FALSE
 1  O=C(O)C(F)(OC(F)(F)C(F)(F)C(F)(F)F)C(F)(F)F (stereo unspecified)             FALSE
 2  O=C(O)C(F)(F)OC(F)(F)C(F)(F)OC(F)(F)C(=O)O             FALSE
 3  CC(O)C(F)(F)C(F)(F)F (stereo unspecified)             FALSE
 4                O=C(O)C(F)(F)C(F)(F)C(=O)O             FALSE
 5       CO/N=C(/C(=O)OC)c1ccccc1COc1ccccc1C              TRUE
 6                      c1cc2c3c(cccc3c1)CC2             FALSE
 7        OCC(F)(F)OC(F)(F)C(F)(F)OC(F)(F)CO             FALSE
 8           O=C(O)C=CC(F)(C(F)(F)F)C(F)(F)F             FALSE
 9          c1ccc(OP(Oc2ccccc2)Oc2ccccc2)cc1             FALSE
10  CCC1(c2ccccc2)C(=O)N=C(O)NC1=O (stereo unspecified)             FALSE

====

assay: APR_HepG2_MicrotubuleCSK_24hr: Apredica 24-hour HepG2 Assay for Microtubule CSK Stabilty (AID 2282909); conditions: HepG2 microtubule cytoskeleton imaging, actives raise or lower the signal
The source made the active and inactive calls. Rule for the calls: active = hit-call score of the fitted dose curve at least 0.9, where 1 is the maximum; inactive = score below 0.9.
Labels: 1 = active, -1 = inactive

>>> df
                                    compound  class_assignment
 0                  Cc1ccc([N+](=O)[O-])cc1C                -1
 1                             Nc1ccc(Cl)cc1                -1
 2                        CCOP(=S)(OCC)SCSCC                -1
 3                             O=C(O)C(Cl)Cl                -1
 4        O=P(Oc1ccccc1)(Oc1ccccc1)Oc1ccccc1                 1
 5          c1ccc(OP(Oc2ccccc2)Oc2ccccc2)cc1                -1
 6  O=C(O)C1C(C(=O)O)C2(Cl)C(Cl)=C(Cl)C1(Cl)C2(Cl)Cl (stereo not drawn)                -1
 7                      CCC(C)(C)c1ccc(O)cc1                -1
 8                    c1ccc2c(c1)Nc1ccccc1S2                -1
 9                OCC1CO1 (stereo not drawn)                -1
10                           ClC(Cl)c1ccccc1                -1
11                              Cc1cccc(N)c1                -1
12                                c1nc[nH]n1                -1
13                       ClC(Cl)(Cl)c1ccccc1                -1
14                              CN(C)C(=O)Cl                -1
15                            CCCCN(CCCC)N=O                -1
16                CCNc1nc(Cl)nc(NC(C)(C)C)n1                -1
17                           Nc1ccc2ccccc2c1                -1
18  CCCN(CCC)c1c([N+](=O)[O-])cc(C(C)C)cc1[N+](=O)[O-]                -1
19  CC(Cc1ccc(OCC(=O)O)cc1)NCC(O)c1csc(C(F)(F)F)n1 (stereo not drawn)                -1
20              O=[N+]([O-])c1ccc(Cl)c(Cl)c1                -1
21                      O=[N+]([O-])c1ccccc1                -1
22  O=P1(N(CCCl)CCCl)NCCCO1 (stereo not drawn)                -1
23                      c1cc2c3c(cccc3c1)CC2                -1
24                            [N-]=[N+]=[N-]                -1
25                           CCOS(=O)(=O)OCC                -1
26  CCC1(c2ccccc2)C(=O)N=C(O)NC1=O (stereo not drawn)                -1
27  CCCCN(CCCC)SN(C)C(=O)Oc1cccc2c1OC(C)(C)C2                -1

====

read-out: Vascular cell adhesion molecule 1 (VCAM1), VCAM1 (gene 7412); assay: BSK_CASM3C_VCAM1: BioMAP Diversity Plus: CASM3C Assay for Vascular cell adhesion molecule 1 (VCAM1) Biomarker Activity (AID 2283055); details: primary human coronary artery smooth muscle cells; actives raise or lower the signal;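 further: VCAM-1 protein level quantified by ELISA on the cells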
Active and inactive are the calls of the source. How the source made its calls: active means hit-call score of the fitted dose curve at least 0.9, where 1 is the maximum; inactive means score below 0.9.
Labels: active, inactive

In [3]: df
Out[3]:
                                    molecule  class_assignment
 0                            [N-]=[N+]=[N-]          inactive
 1                              CCCCc1ccccc1          inactive
 2                  Cc1ccc([N+](=O)[O-])cc1C          inactive
 3                CCOP(=S)(OCC)SCS(=O)(=O)CC          inactive
 4                             O=C(O)C(Cl)Cl          inactive
 5                                  COCCOCCO          inactive
 6                      CCC(C)(C)c1ccc(O)cc1          inactive
 7  CCCCN(CCCC)SN(C)C(=O)Oc1cccc2c1OC(C)(C)C2            active
 8  O=S(=O)(F)C(F)(F)C(F)(F)C(F)(F)C(F)(F)C(F)(F)C(F)(F)C(F)(F)C(F)(F)F          inactive
 9                           CCOS(=O)(=O)OCC          inactive
10                           Nc1ccc2ccccc2c1          inactive
11            Cc1ccc2c(c1N)C(=O)c1ccccc1C2=O          inactive
12                            CCCCN(CCCC)N=O          inactive
13                        CCOP(=S)(OCC)SCSCC          inactive
14        OCC(F)(F)OC(F)(F)C(F)(F)OC(F)(F)CO          inactive

====

Read-out: Glutamate-cysteine ligase catalytic (GCLC), GCLC (gene 2729)
Assay: LTEA_HepaRG_GCLC: Life Technologies and Expression Analysis (LTEA) Assay for Glutamate-cysteine ligase catalytic (GCLC) using HepaRG (AID 2283498)
Conditions: mRNA level, 48 h; actives raise or lower the signal
Protocol: LTEA_HepaRG is a cell based, multiplexed-readout assay that uses HepaRG, a human liver cell line, with measurements taken at 48 hours after chemical dosing on a 96-well plate.LTEA_HepaRG_GCLC is one of 102 assay component(s) measured in the LTEA HepaRG cell culture assay. It is a marker of Oxidative Stress.Data from the assay component LTEA_HepaRG_GCLC was analyzed into 1 endpoint. […]
Calls of active or inactive are those of the source. How the source made its calls: active means hit-call score of the fitted dose curve at least 0.9, where 1 is the maximum; inactive means score below 0.9.
Labels: label 1 (active), label 0 (inactive)

>>> df
                                    compound  class_assignment
 0                             Cc1ccc(N)cc1N           label 0
 1  CC(Cc1ccc(OCC(=O)O)cc1)NCC(O)c1csc(C(F)(F)F)n1 (stereo not drawn)           label 0
 2  O=C(O)C1C(C(=O)O)C2(Cl)C(Cl)=C(Cl)C1(Cl)C2(Cl)Cl (stereo not drawn)           label 1
 3                           ClC(Cl)c1ccccc1           label 0
 4                OCC1CO1 (stereo not drawn)           label 0
 5                             Cc1ccc(O)cc1C           label 0
 6                           Nc1ccc2ccccc2c1           label 0
 7                      CCC(C)(C)c1ccc(O)cc1           label 0
 8                            [N-]=[N+]=[N-]           label 0
 9                      O=[N+]([O-])c1ccccc1           label 0
10                  CCOC(=O)c1ccccc1C(=O)OCC           label 0
11                             CSC(C)(C)C=NO           label 0
12  ClC1=C(Cl)C2(Cl)C3C(Cl)C(Cl)CC3C1(Cl)C2(Cl)Cl (stereo not drawn)           label 0
